- tgt: SMARCA2 (Homo sapiens)
- Construct: SMARCA2-HiBiT knock-in Hela monoclonal cell (CS302366); host or cells: HeLa (HiBiT knock-in monoclonal line)
- Sequence (P51531 whole entry): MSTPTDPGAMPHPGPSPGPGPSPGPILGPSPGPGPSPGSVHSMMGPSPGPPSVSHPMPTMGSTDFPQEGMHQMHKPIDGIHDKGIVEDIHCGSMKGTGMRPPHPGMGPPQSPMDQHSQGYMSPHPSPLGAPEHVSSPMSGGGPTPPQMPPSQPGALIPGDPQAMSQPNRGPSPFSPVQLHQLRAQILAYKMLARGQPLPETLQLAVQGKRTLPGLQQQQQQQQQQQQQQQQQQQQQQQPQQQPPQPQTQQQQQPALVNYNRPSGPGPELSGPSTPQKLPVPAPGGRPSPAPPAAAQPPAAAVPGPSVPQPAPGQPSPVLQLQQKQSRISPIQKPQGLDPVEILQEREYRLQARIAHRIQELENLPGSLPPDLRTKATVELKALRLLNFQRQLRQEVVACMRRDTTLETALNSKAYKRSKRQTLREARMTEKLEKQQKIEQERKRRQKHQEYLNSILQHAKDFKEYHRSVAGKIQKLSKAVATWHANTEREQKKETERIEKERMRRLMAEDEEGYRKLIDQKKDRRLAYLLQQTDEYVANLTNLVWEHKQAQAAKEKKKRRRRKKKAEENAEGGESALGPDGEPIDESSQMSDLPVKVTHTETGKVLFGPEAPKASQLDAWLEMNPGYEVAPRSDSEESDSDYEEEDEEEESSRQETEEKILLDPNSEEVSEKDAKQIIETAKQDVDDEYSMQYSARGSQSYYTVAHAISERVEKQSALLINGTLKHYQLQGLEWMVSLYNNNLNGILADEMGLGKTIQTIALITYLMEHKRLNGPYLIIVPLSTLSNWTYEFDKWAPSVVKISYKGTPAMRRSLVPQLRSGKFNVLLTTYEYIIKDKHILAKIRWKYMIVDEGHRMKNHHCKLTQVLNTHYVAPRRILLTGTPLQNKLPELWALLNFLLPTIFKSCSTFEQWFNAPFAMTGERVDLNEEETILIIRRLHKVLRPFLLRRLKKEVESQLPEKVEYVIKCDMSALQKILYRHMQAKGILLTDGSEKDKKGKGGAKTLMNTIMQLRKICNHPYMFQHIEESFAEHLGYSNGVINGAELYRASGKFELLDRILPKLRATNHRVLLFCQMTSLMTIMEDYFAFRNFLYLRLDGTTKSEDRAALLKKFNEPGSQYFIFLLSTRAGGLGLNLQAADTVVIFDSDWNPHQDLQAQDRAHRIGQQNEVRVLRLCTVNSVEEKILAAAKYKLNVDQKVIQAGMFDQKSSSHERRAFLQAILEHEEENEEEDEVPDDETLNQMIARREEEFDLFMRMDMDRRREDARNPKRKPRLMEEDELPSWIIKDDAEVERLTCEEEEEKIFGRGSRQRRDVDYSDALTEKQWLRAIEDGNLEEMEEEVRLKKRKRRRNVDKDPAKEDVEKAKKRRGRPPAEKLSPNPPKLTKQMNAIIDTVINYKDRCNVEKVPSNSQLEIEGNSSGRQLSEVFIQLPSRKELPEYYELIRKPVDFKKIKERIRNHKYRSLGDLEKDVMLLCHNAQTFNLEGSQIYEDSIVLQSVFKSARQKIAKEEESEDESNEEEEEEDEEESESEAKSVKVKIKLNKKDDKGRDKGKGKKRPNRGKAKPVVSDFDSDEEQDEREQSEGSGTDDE
- test protocol: SMARCA2 HiBiT degradation assay in HeLa cells
- Type: cell-based
- cond: 18 hours incubation, read-out: Dmax % (SM2-HeLa), maximum SMARCA2 degradation within the concentrations tested
The entries below are paired with their reported Dmax.

Worked cases, answers included:
[
  {
    "compound": "Cc1ncsc1-c1ccc([C@H](C)NC(=O)[C@@H]2C[C@@H](O)CN2C(=O)[C@@H](c2cc(OCCN3CCC(N4CCC5(CC4)CNc4nnc(-c6ccccc6O)cc4N5)CC3)no2)C(C)C)cc1 [Example 2]",
    "Dmax": "50 to 75%"
  },
  {
    "compound": "Cc1ncsc1-c1ccc([C@H](C)NC(=O)[C@@H]2C[C@@H](O)CN2C(=O)[C@@H](c2cc(OCCN3CCC(N4CCCC5(CNc6nnc(-c7ccccc7O)cc6N5)C4)C3)no2)C(C)C)cc1 (some centres unmarked) [Example 4]",
    "Dmax": "50 to 75%"
  },
  {
    "compound": "Cc1ncsc1-c1ccc([C@H](C)NC(=O)[C@@H]2C[C@@H](O)CN2C(=O)[C@@H](c2cc(OCCN3CCC(N4CCC5(CC4)CNc4nnc(-c6ccccc6O)cc45)C3)no2)C(C)C)cc1 (some centres unmarked) [Example 1]",
    "Dmax": "> 75%"
  },
  {
    "compound": "Cc1ncsc1-c1ccc([C@H](C)NC(=O)[C@@H]2C[C@@H](O)CN2C(=O)[C@@H](c2cc(OCCN3CCC(N4CCCC5(CNc6nnc(-c7ccccc7O)cc6N5)C4)CC3)no2)C(C)C)cc1 (some centres unmarked) [Example 5]",
    "Dmax": "50 to 75%"
  }
]

Query compound follows.
Let me check: Cc1ncsc1-c1ccc([C@H](C)NC(=O)[C@@H]2C[C@@H](O)CN2C(=O)[C@@H](c2cc(OCCN3CCC(N4CCC5(CC4)CNc4nnc(-c6ccccc6O)cc4N5)C3)no2)C(C)C)cc1 (some centres unmarked) [Example 6] , system SMARCA2 (Homo sapiens), measured Dmax is ≤ 50%

---

- tgt: SMARCA4 (Homo sapiens, UniProt P51532)
- Construct: SMARCA4-HiBiT knock-in Hela monoclonal cell (CS3023226); host or cells: HeLa (HiBiT knock-in monoclonal line)
- Sequence (P51532 whole entry): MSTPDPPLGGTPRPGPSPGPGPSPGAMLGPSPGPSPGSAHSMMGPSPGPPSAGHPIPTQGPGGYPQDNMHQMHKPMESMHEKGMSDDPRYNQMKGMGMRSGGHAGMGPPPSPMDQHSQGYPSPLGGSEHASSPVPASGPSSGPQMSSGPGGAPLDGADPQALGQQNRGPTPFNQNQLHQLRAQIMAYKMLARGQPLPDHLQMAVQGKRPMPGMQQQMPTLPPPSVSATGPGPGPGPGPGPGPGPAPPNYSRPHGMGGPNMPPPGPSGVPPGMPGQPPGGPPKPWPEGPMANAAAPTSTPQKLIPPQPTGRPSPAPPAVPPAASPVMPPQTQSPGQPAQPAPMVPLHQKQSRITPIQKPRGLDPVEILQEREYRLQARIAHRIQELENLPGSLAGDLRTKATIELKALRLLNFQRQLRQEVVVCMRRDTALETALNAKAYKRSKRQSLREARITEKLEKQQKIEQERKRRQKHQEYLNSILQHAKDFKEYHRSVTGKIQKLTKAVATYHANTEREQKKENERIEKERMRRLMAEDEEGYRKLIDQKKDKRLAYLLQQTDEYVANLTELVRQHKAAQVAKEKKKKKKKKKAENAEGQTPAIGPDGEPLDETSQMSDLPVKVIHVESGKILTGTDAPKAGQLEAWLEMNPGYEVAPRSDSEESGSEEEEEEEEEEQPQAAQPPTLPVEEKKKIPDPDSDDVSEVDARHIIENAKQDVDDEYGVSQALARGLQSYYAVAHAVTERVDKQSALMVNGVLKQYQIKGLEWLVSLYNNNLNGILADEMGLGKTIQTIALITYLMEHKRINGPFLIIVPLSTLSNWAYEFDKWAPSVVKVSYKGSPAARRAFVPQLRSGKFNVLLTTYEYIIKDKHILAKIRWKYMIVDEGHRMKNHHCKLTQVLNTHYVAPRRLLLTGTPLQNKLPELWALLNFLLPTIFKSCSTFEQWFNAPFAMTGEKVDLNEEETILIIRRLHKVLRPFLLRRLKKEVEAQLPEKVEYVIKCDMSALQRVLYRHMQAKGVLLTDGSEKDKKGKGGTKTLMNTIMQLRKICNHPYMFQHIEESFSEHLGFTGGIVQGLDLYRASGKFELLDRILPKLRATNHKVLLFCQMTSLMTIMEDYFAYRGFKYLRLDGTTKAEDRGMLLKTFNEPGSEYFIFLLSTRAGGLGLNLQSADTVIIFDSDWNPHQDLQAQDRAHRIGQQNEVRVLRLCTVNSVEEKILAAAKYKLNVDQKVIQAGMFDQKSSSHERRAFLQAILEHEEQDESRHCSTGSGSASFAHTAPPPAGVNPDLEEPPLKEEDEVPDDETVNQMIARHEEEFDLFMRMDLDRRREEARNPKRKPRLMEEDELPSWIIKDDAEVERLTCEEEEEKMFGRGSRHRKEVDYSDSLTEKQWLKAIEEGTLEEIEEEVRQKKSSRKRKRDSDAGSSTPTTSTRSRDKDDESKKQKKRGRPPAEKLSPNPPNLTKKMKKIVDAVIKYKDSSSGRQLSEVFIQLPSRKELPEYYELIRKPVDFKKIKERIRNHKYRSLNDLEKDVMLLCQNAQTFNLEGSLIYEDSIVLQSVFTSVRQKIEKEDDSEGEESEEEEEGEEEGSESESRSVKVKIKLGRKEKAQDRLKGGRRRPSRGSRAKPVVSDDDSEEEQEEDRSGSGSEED
- test protocol: SMARCA4 HiBiT degradation assay in HeLa cells
- Format: cell-based
- cond: 18 hours incubation, read-out: DC50 (SM4-HeLa), SMARCA4 degradation potency
The entries below are paired with their reported DC50.

[
  {
    "compound": "Cc1ncsc1-c1ccc([C@H](C)NC(=O)[C@@H]2C[C@@H](O)CN2C(=O)[C@@H](c2cc(OCCN3CCC(N4CCC5(CC4)CNc4nnc(-c6ccccc6O)cc45)C3)no2)C(C)C)cc1 (stereo partly drawn)",
    "DC50": "≥ 10 µM"
  },
  {
    "compound": "Cc1ncsc1-c1ccc([C@H](C)NC(=O)[C@@H]2C[C@@H](O)CN2C(=O)[C@@H](c2cc(OCCN3CCC(CN4CCC5(CC4)CNc4nnc(-c6ccccc6O)cc4N5)CC3)no2)C(C)C)cc1",
    "DC50": "< 0.1 µM"
  }
]

Query compound follows.
Reported DC50 ( `Cc1ncsc1-c1ccc([C@H](C)NC(=O)[C@@H]2C[C@@H](O)CN2C(=O)[C@@H](c2cc(OCCN3CCC(CN4CCC5(CC4)CNc4nnc(-c6ccccc6O)cc45)CC3)no2)C(C)C)cc1` ) = ≥ 10 µM
